Please go through the items and note down their MIC.
System: Vaccinia virus
test.protocol: Antiviral activity against Vaccinia virus in human HEL cells assessed as reduction of virus-induced cytopathogenicity
Format: functional
test.parameters: Orthopoxvirus vaccinia

INSERT INTO assay_data (test_smiles, result) VALUES
  ('CCNC(=S)Nc1ccc(-c2n[nH]c(=S)n2C)cc1', '240 µg/mL');

Below is a list of compounds. For each, state its recorded MIC.
1. CNC(=S)Nc1ccc(OCc2n[nH]c(=S)n2C)cc1
2. CNC(=S)Nc1ccc(-c2n[nH]c(=S)n2-c2ccccc2)cc1
3. CCn1c(COc2ccc(NC(=S)Nc3ccccc3)cc2)n[nH]c1=S

## Result
["> 400 µg/mL", "> 80 µg/mL", "> 80 µg/mL"]

Below is a list of compounds. For each, state its recorded MIC.
1. Nc1ccc(OCc2n[nH]c(=S)n2-c2ccccc2)cc1
2. NC(=O)c1ncn([C@@H]2O[C@H](CO)[C@@H](O)[C@H]2O)n1

## Result
["> 400 µg/mL", "48 µg/mL"]

###

Tested on: Vaccinia virus
test.protocol: Antiviral activity against Vaccinia virus in human E6SM cells assessed as reduction of virus-induced cytopathogenicity
Type: functional
test.parameters: Orthopoxvirus vaccinia
Please go through the items and note down their MIC.

INSERT INTO assay_data (test_smiles, recorded_metric, result) VALUES
  ('CCn1c(COc2ccc(N)cc2)n[nH]c1=S', 'MIC', '240 µg/mL'),
  ('CCCCCCNC(=S)Nc1ccc(-c2n[nH]c(=S)n2-c2ccccc2)cc1', 'MIC', '> 16 µg/mL'),
  ('CCNC(=S)Nc1ccc(OCc2n[nH]c(=S)n2-c2ccccc2)cc1', 'MIC', '> 400 µg/mL'),
  ('CCNC(=S)Nc1ccc(-c2n[nH]c(=S)n2C)cc1', 'MIC', '240 µg/mL'),
  ('CCNC(=S)Nc1ccc(OCc2n[nH]c(=S)n2CC)cc1', 'MIC', '240 µg/mL');

Below is a list of compounds. For each, state its recorded MIC.
1. NC(=O)c1ncn([C@@H]2O[C@H](CO)[C@@H](O)[C@H]2O)n1
2. Nc1nc2c(ncn2COC(CO)CO)c(=O)[nH]1
3. CNC(=S)Nc1ccc(-c2n[nH]c(=S)n2C)cc1
4. CCn1c(COc2ccc(NC(=S)NC)cc2)n[nH]c1=S
5. C=CCn1c(COc2ccc(NC(=S)NC)cc2)n[nH]c1=S
6. CNC(=S)Nc1ccc(-c2n[nH]c(=S)n2-c2ccccc2)cc1

## Result
1: 48 µg/mL; 2: > 100 µg/mL; 3: 240 µg/mL; 4: > 400 µg/mL; 5: > 400 µg/mL; 6: > 80 µg/mL

Below is a list of compounds. For each, state its recorded MIC.
1. CNC(=S)Nc1ccc(OCc2n[nH]c(=S)n2-c2ccccc2)cc1
2. C=CCNC(=S)Nc1ccc(OCc2n[nH]c(=S)n2CC)cc1
3. C=CCn1c(-c2ccc(NC(=S)Nc3ccccc3)cc2)n[nH]c1=S
4. C=CCn1c(-c2ccc(NC(=S)NC)cc2)n[nH]c1=S
5. CNC(=S)Nc1ccc(OCc2n[nH]c(=S)n2C)cc1
6. Nc1nc2c(ncn2COCCO)c(=O)[nH]1
7. S=C(Nc1ccccc1)Nc1ccc(OCc2n[nH]c(=S)n2-c2ccccc2)cc1

## Result
["> 400 µg/mL", "240 µg/mL", "> 16 µg/mL", "240 µg/mL", "> 400 µg/mL", "> 400 µg/mL", "> 80 µg/mL"]

Below is a list of compounds. For each, state its recorded MIC.
1. C=CCNC(=S)Nc1ccc(-c2n[nH]c(=S)n2CC)cc1
2. C=CCNC(=S)Nc1ccc(-c2nnc(SCc3ccc(Cl)cc3Cl)n2C)cc1
3. S=C(Nc1ccc(Cl)cc1)Nc1ccc(-c2n[nH]c(=S)n2-c2ccccc2)cc1
4. C=CCNC(=S)Nc1ccc(-c2nnc(SCc3ccc(Cl)cc3Cl)n2-c2ccccc2)cc1
5. CCn1c(COc2ccc(NC(=S)Nc3ccccc3)cc2)n[nH]c1=S

## Result
["240 µg/mL", "> 16 µg/mL", "> 16 µg/mL", "> 16 µg/mL", "> 80 µg/mL"]

###

Please go through the items and note down their MIC.
System: Vaccinia virus
test.protocol: Antiviral activity against Vaccinia virus in human E6SM cells assessed as reduction of virus-induced cytopathogenicity
Format: functional
test.parameters: Orthopoxvirus vaccinia
Answers are plain numbers, in µg/mL.

Solved cases below.
INSERT INTO results (compound, number) VALUES
  ('C=CCNC(=S)Nc1ccc(OCc2n[nH]c(=S)n2-c2ccccc2)cc1', 240),
  ('Cn1c(COc2ccc(N)cc2)n[nH]c1=S', 240);

Below is a list of compounds. For each, state its recorded MIC.
1. C=CCNC(=S)Nc1ccc(-c2n[nH]c(=S)n2C)cc1
2. C=CCNC(=S)Nc1ccc(OCc2n[nH]c(=S)n2CC=C)cc1
3. O=c1[nH]c(=O)n([C@H]2C[C@H](O)[C@@H](CO)O2)cc1/C=C/Br [BRIVUDINE]

## Result
1: 240; 2: 240; 3: 3.2

###

System: Vaccinia virus
test.protocol: Antiviral activity against Vaccinia virus in human HEL cells assessed as reduction of virus-induced cytopathogenicity
Assay type: functional
test.parameters: Orthopoxvirus vaccinia
Please go through the items and note down their MIC.

Solved cases below.
INSERT INTO measurements (test_smiles, result) VALUES
  ('CNC(=S)Nc1ccc(OCc2n[nH]c(=S)n2-c2ccccc2)cc1', '> 400 µg/mL'),
  ('C=CCn1c(COc2ccc(NC(=S)NCC)cc2)n[nH]c1=S', '> 400 µg/mL'),
  ('C=CCNC(=S)Nc1ccc(-c2n[nH]c(=S)n2C)cc1', '240 µg/mL');

Below is a list of compounds. For each, state its recorded MIC.
1. CCCCCCNC(=S)Nc1ccc(-c2n[nH]c(=S)n2CCCCCC)cc1
2. C=CCNC(=S)Nc1ccc(-c2n[nH]c(=S)n2CCc2ccccc2)cc1
3. CCCCCCNC(=S)Nc1ccc(-c2n[nH]c(=S)n2C)cc1

## Result
["> 3.2 µg/mL", "> 80 µg/mL", "80 µg/mL"]

###

Please go through the items and note down their MIC.
System: Vaccinia virus
test.protocol: Antiviral activity against Vaccinia virus in human E6SM cells assessed as reduction of virus-induced cytopathogenicity
Assay type: functional
test.parameters: Orthopoxvirus vaccinia

Solved cases below.
INSERT INTO assay_data (test_smiles, result) VALUES
  ('CCCCCCNC(=S)Nc1ccc(-c2n[nH]c(=S)n2CC)cc1', '> 80 µg/mL'),
  ('Cn1c(-c2ccc(NC(=S)Nc3ccccc3)cc2)n[nH]c1=S', '> 80 µg/mL'),
  ('S=C(Nc1ccccc1)Nc1ccc(-c2n[nH]c(=S)n2-c2ccccc2)cc1', '> 80 µg/mL'),
  ('CCCCCCNC(=S)Nc1ccc(-c2n[nH]c(=S)n2CCCCCC)cc1', '> 3.2 µg/mL'),
  ('C=CCn1c(COc2ccc(N)cc2)n[nH]c1=S', '> 400 µg/mL');

## Task Look up and report measured MIC (Vaccinia virus) for the following molecule: C=CCNC(=S)Nc1ccc(OCc2n[nH]c(=S)n2C)cc1
## Result > 400 µg/mL

###

System: Vaccinia virus
test.protocol: Antiviral activity against Vaccinia virus in human E6SM cells assessed as reduction of virus-induced cytopathogenicity
Assay type: functional
test.parameters: Orthopoxvirus vaccinia
recorded.metric: MIC

INSERT INTO results (test_smiles, assayed_target, recorded_metric, result) VALUES
  ('CCCCCCNC(=S)Nc1ccc(-c2n[nH]c(=S)n2C)cc1', 'Vaccinia virus', 'MIC', '80 µg/mL'),
  ('CCNC(=S)Nc1ccc(OCc2n[nH]c(=S)n2C)cc1', 'Vaccinia virus', 'MIC', '> 400 µg/mL'),
  ('C=CCNC(=S)Nc1ccc(-c2n[nH]c(=S)n2-c2ccccc2)cc1', 'Vaccinia virus', 'MIC', '> 80 µg/mL'),
  ('CCNC(=S)Nc1ccc(-c2n[nH]c(=S)n2-c2ccccc2)cc1', 'Vaccinia virus', 'MIC', '> 3.2 µg/mL'),
  ('Cn1c(COc2ccc(NC(=S)Nc3ccccc3)cc2)n[nH]c1=S', 'Vaccinia virus', 'MIC', '> 80 µg/mL');

Consider the additional compound presented here.
## Task # return recorded MIC for input Nc1ccc(OCc2n[nH]c(=S)n2-c2ccccc2)cc1
## Result > 400 µg/mL

###

Please go through the items and note down their MIC.
Test system: Vaccinia virus
test.protocol: Antiviral activity against Vaccinia virus in human HEL cells assessed as reduction of virus-induced cytopathogenicity
Format: functional
test.parameters: Orthopoxvirus vaccinia
One number for each entry, in µg/mL.

INSERT INTO assay_data (test_smiles, u, number) VALUES
  ('CNC(=S)Nc1ccc(-c2n[nH]c(=S)n2C)cc1', 'µg/mL', 240),
  ('O=c1[nH]c(=O)n([C@H]2C[C@H](O)[C@@H](CO)O2)cc1/C=C/Br', 'µg/mL', 3.2);

Below is a list of compounds. For each, state its recorded MIC.
1. C=CCNC(=S)Nc1ccc(OCc2n[nH]c(=S)n2-c2ccccc2)cc1
2. C=CCNC(=S)Nc1ccc(OCc2n[nH]c(=S)n2CC)cc1

## Result
1. 240
2. 240
